Tested on: XIP peptide (Xip251-270) binding
Test: small-molecule binders of XIP peptide, primary screen, biochemical, small-molecule microarray, fluorescence 635/667 nm, 0.1 µg/mL protein (AID 1182)
Conditions: fluorescent protein binding, 635 nm, higher = more signal, called active from +8 up or from −8 down
Binary call on composite z-score: MET from 0.2 upward, NOT MET beneath that.

INPUT: Dear colleague, could you confirm whether CCOC(=O)[C@H](Cc1ccccc1)NC(=O)CCC1CC(OC(=O)NCCc2ccc(F)cc2)CC2(CCCC(COC(=O)NCC(c3ccccc3)c3ccccc3)O2)O1 (some centres not stated) has composite z-score at or above 0.2?
OUTPUT: NOT MET

INPUT: Dear colleague, could you confirm whether CCOC(=O)NN=C1C[C@@H](O)[C@@H](O)[C@@H]2[C@@H]3C(=O)N(CC)C(=O)[C@@H]3CC[C@@H]12 has composite z-score at or above 0.2?
OUTPUT: NOT MET

INPUT: Dear colleague, could you confirm whether COc1cccc([C@H]2Oc3ccc(OC)cc3C(=NOC(C)CN3CCCc4nc(C)c(C)cc43)[C@@H]2O)c1 (some centres not stated) has composite z-score at or above 0.2?
OUTPUT: MET

INPUT: Dear colleague, could you confirm whether COCCCNC(=O)[C@]1(Cc2ccccc2)N=C(c2ccc(OCCCO)cc2)O[C@@H]1c1ccccc1 has composite z-score at or above 0.2?
OUTPUT: MET

INPUT: Dear colleague, could you confirm whether CC(CCC(=O)OC[C@H]1O[C@H](C#Cc2ccccc2)C=C[C@@H]1Oc1ccc(C)cc1)=NO[C@@H](C)c1cn([C@H](CO)Cc2ccccc2)nn1 has composite z-score at or above 0.2?
OUTPUT: MET

INPUT: Dear colleague, could you confirm whether COc1ccc(COC(=O)NN=C2C[C@@H](O)[C@@H](O)[C@@H]3[C@@H]4C(=O)N(c5ccc(F)cc5F)C(=O)[C@@H]4CC[C@@H]23)cc1 has composite z-score at or above 0.2?
OUTPUT: NOT MET

INPUT: Dear colleague, could you confirm whether CC(=O)O[C@H]1C2=C(C(=O)[C@@H]3O[C@@H]31)[C@H]1C(C)O[C@@H]2[C@@]23C(=O)[C@@H]4O[C@@H]4[C@@H](O)C2=CO[C@H](C)[C@@H]13 (some centres not stated) has composite z-score at or above 0.2?
OUTPUT: NOT MET

// provenance: PubChem BioAssay
